Target: Anti-CD28 scFv (VH - linker 1 - VL) (biotinylated (site not stated))
Sequence (scFv, as listed by the source): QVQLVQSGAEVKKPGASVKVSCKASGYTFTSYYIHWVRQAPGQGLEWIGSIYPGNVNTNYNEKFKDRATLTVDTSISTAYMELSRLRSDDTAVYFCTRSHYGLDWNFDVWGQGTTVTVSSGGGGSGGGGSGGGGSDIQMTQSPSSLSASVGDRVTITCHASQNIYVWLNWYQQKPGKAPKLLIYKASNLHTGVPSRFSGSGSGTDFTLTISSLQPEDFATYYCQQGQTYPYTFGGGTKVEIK
Assay: clonal phage ELISA on biotinylated anti-CD28 scFv captured on neutravidin plates, anti-M13 HRP detection;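 further: crude phage supernatants were used, and before phage were added the wells were pretreated with blocking buffer, either alone or with soluble CD28 protein, without washing in between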
propertyLabel: CD28 scFv signal
Please give only the number in your answer, with no unit.

# input Answer with the recorded CD28 scFv signal of MDWCPRALWNECFA (tested as crude clonal phage supernatant) [Phage-127] only.
# output 2.38

# input Answer with the recorded CD28 scFv signal of MDWCPRDLWHACFS (tested as crude clonal phage supernatant) [Phage-120] only.
# output 2.41

# input Answer with the recorded CD28 scFv signal of MDWCPRSLWNVCFF (tested as crude clonal phage supernatant) [Phage-141] only.
# output 2.13

# input Answer with the recorded CD28 scFv signal of MDWCPRFLWNECFN (tested as crude clonal phage supernatant) [Phage-126] only.
# output 2.4

# input Answer with the recorded CD28 scFv signal of MDWCPRYLWHECFH (tested as crude clonal phage supernatant) [Phage-137] only.
# output 2.19

# input Answer with the recorded CD28 scFv signal of MHWCPIYLWDECFN (tested as crude clonal phage supernatant) [Phage-136] only.
# output 2.23

# input Answer with the recorded CD28 scFv signal of MDWCPMDLWDVCFN (tested as crude clonal phage supernatant) [Phage-140] only.
# output 2.15

# input Answer with the recorded CD28 scFv signal of LDWCPLNLWDLCYF (tested as crude clonal phage supernatant) [Phage-143] only.
# output 2.03

# input Answer with the recorded CD28 scFv signal of MDWCPRHLWYACFN (tested as crude clonal phage supernatant) [Phage-144] only.
# output 2.01

# input Answer with the recorded CD28 scFv signal of MDWCPTNLWHECFA (tested as crude clonal phage supernatant) [Phage-138] only.
# output 2.16

# input Answer with the recorded CD28 scFv signal of MDWCPRDLWDQCYA (tested as crude clonal phage supernatant) [Phage-122] only.
# output 2.41

# input Answer with the recorded CD28 scFv signal of MDWCPRDLWHVCFF (tested as crude clonal phage supernatant) [Phage-121] only.
# output 2.41

# input Answer with the recorded CD28 scFv signal of MDWCPKFLWHECFS (tested as crude clonal phage supernatant; also called position 7 is F in the position column) [Phage-135] only.
# output 2.28

# input Answer with the recorded CD28 scFv signal of MDWCPSYLWHECFA (tested as crude clonal phage supernatant) [Phage-134] only.
# output 2.28

# input Answer with the recorded CD28 scFv signal of MDWCPRYLWHMCYS (tested as crude clonal phage supernatant) [Phage-119] only.
# output 2.42

# input Answer with the recorded CD28 scFv signal of MDWCPRDLWDVCFA (tested as crude clonal phage supernatant) [Phage-139] only.
# output 2.16

The measured values listed here are drawn from patent US20260242478A1.
